Field: pKd. Provide a value for each of the binders that follow.
- TARGET_OR_TEST_SYSTEM: T1, cynomolgus monkey BCMA (cynomolgus monkey, UniProt A0A2K5UD97 1-53)
- T1 construct: Soluble analyte in SPR; construct not described; also called cyBCMA; Cyno BCMA
- T1 sequence (A0A2K5UD97 entry or part of it): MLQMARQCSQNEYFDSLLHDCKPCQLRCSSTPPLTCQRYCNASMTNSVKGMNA
- TEST: SPR, IgG on chip, cyBCMA analyte
The value called pKd is obtained by taking minus log10 of the concentration in mol/L.

In: Report pKd for COMBO_Rd4_0.6nM_C19 (antibody, V domains shown, IgG) VH: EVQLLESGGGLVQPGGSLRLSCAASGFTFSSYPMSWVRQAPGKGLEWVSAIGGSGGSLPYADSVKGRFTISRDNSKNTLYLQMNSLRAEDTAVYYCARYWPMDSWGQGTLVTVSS VL: EIVLTQSPGTLSLSPGERATLSCRASQSVSAVYLAWYQQKPGQAPRLLMYDASIRATGIPDRFSGSGSGTDFTLTISRLEPEDFAVYYCQQYRAWPLTFGQGTKVEIK please.
Out: 9.47

In: Report pKd for A02_Rd4_6nM_C22 (antibody, V domains shown, IgG) VH: EVQLLESGGGLVQPGGSLRLSCAASGFTFSSYAMNWVRQAPGKGLEWVSAVLDSGGSTYYADSVKGRFTISRDNSKNTLYLQMNSLRAEDTAVYYCARYWPMTPWGQGTLVTVSS VL: EIVLTQSPGTLSLSPGERATLSCRASQSVSSSYLAWYQQKPGQAPRLLMYDASIRATGIPDRFSGSGSGTDFTLTISRLEPEDFAVYYCQQYQVWPLTFGQGTKVEIK please.
Out: 9.75

In: Report pKd for COMBO_Rd4_6nM_C09 (antibody, V domains shown, IgG) VH: EVQLLESGGGLVQPGGSLRLSCAASGFTFSSYPMSWVRQAPGKGLEWVSAIFASGGSTYYADSVKGRFTISRDNSKNTLYLQMNSLRAEDTAVYYCARYWPMDSWGQGTLVTVSS VL: EIVLTQSPGTLSLSPGERATLSCRASQSVSAQYLAWYQQKPGQAPRLLMYDASIRATGIPDRFSGSGSGTDFTLTISRLEPEDFAVYYCQQYQAWPLTFGQGTKVEIK please.
Out: 9.87
